# method: Acute toxicity in rats
# condition label: rat, in vivo, po, Bliss method
reported property: LD50 (mg/kg)
Numbers only, in mg/kg.

Field LD50 (entry Nc1ccc(CN2CCN(CC(=O)c3ccccc3)CC2)cc1 [IV-12] ) reads 414

====

# method: Acute toxicity in mice
# condition label: mouse, in vivo, po, Bliss method
reported property: LD50 (mg/kg)
Numbers only, in mg/kg.

Notebook: Nc1ccc(CN2CCN(CC(=O)c3ccccc3)CC2)cc1 [IV-12] , LD50 read as 309

====

Structures can show the parent of a compound that is named as a salt.
reported property: melting point

// worked examples, melting point included
>>> reading("COc1ccc(OC)c(CN2CCN(CC(=O)c3ccccc3)CC2)c1 (as salt: hydrochloride) [IV-15]")
"238 to 240 °C"
>>> reading("O=C(CN1CCN(Cc2ccc(Cl)cc2)CC1)c1ccccc1 (as salt: hydrochloride) [IV-3]")
"256 to 258 °C"
>>> reading("COc1cc(CN2CCN(C(C)C(=O)c3ccc4c(Cl)c(OC)ccc4c3)CC2)cc(OC)c1OC (stereo not drawn) (as salt: hydrochloride)")
"219 to 222 °C"
>>> reading("CC(c1ccccc1)N1CCN(CC(=O)c2ccccc2)CC1 (stereo not drawn) (as salt: hydrochloride) [IV-37]")
"242 °C (dec.)"
>>> reading("O=C(CN1CCN(Cc2ccccc2)CC1)c1ccccc1 (as salt: hydrochloride) [IV-1, N^1-benzyl-N^4-phenacyl piperazine]")
"238 to 239 °C"
>>> reading("O=C(CN1CCN(CCc2ccccc2)CC1)c1ccccc1 (as salt: hydrochloride) [IV-14, N^1-phenethyl-N^4-phenacyl piperazine]")
"238 to 240 °C"
>>> reading("O=C(CN1CCN(Cc2ccccc2)CC1)c1ccc2ccccc2c1 (as salt: hydrochloride) [IV-7]")
"241 °C (dec.)"
>>> reading("COc1ccc(CN2CCN(C(C)C(=O)c3ccc4c(Cl)c(OC)ccc4c3)CC2)cc1 (stereo not drawn) (as salt: hydrochloride) [IV-31]")
"222 to 224 °C"
>>> reading("COc1ccc2cc(C(=O)C(C)N3CCN(C(C)c4ccccc4)CC3)ccc2c1Cl (stereo not drawn) (as salt: hydrochloride) [IV-43]")
"231 to 232 °C"
>>> reading("O=C(CN1CCN(Cc2ccc(F)cc2)CC1)c1ccc(Cl)cc1 (as salt: hydrochloride) [IV-20]")
"246 to 248 °C (dec.)"

For each of the items listed, what is its melting point?
1. C[C@H](c1ccccc1)N1CCN(CC(=O)c2ccccc2)CC1 (as salt: hydrochloride) [IV-38]
2. CC(C(=O)c1ccccc1)N1CCN(Cc2ccc(N)cc2)CC1 (stereo not drawn) (as salt: hydrochloride) [IV-13]
3. CC(=O)Nc1ccc(C(=O)CN2CCN(Cc3ccc([N+](=O)[O-])cc3)CC2)cc1 (as salt: hydrochloride) [IV-18]
4. CC(C(=O)c1ccccc1)N1CCN(Cc2ccc(Cl)cc2)CC1 (stereo not drawn) (as salt: hydrochloride)
5. Cc1ccc(C(=O)CN2CCN([C@H](C)c3ccccc3)CC2)cc1 (as salt: hydrochloride) [IV-41]

Given back:
1: 230 to 232 °C; 2: 244 to 246 °C (dec.); 3: 228 to 230 °C; 4: 260 to 262 °C; 5: 231 to 232 °C
